All values here come from patent US8933110B2.

pEC50 by entry:
test system: HCV 1b genotype replicon; experiment: HCV replicon assay (qRT-PCR or luciferase), genotype 1b; assay type: cell-based; details: Hepatitis C virus, read-out: Genotype-1b replicon EC50
API: returns pEC50 as number; meaning -log10 of concentration in mol/L.

Below, each entry is followed by its recorded pEC50 result.
- chem-smiles: "COC(=O)N[C@H]1COCCCCOCc2[nH]c(nc2-c2ccc(-c3ccc(-c4c[nH]c([C@@H]5CCCN5C(=O)[C@@H](NC(=O)OC)C(C)C)n4)cc3)cc2)[C@@H]2CCCN2C1=O"
  recorded-measurement: 10.64
- chem-smiles: "COC(=O)N[C@H]1CCCCOCc2[nH]c(nc2-c2ccc(-c3ccc(-c4nc5[nH]c4COCCCC[C@H](NC(=O)OC)C(=O)N4CCC[C@@H]54)cc3)cc2)[C@@H]2CCCN2C1=O"
  recorded-measurement: 9.76
- chem-smiles: "COC(=O)N[C@H]1C/C=C/COCc2[nH]c(nc2-c2ccc(-c3ccc(-c4c[nH]c([C@@H]5CCCN5C(=O)[C@@H](NC(=O)OC)C(C)C)n4)cc3)cc2)[C@@H]2CCCN2C1=O"
  recorded-measurement: 10.33
- chem-smiles: "COC(=O)N[C@H]1Cc2cc(on2)COCc2[nH]c(nc2-c2ccc(-c3ccc(-c4c[nH]c([C@@H]5CCCN5C(=O)[C@@H](NC(=O)OC)C(C)C)n4)cc3)cc2)[C@@H]2CCCN2C1=O"
  recorded-measurement: 10.08

Shifting focus to the compound that follows.
Query string: Using the record for COC(=O)N[C@H]1CCCCOCc2[nH]c(nc2-c2ccc(-c3ccc(-c4c[nH]c([C@@H]5CC6(CC6)CN5C(=O)[C@@H](NC(=O)OC)C(C)C)n4)cc3)cc2)[C@@H]2CCCN2C1=O , report its pEC50.
Result string: 10.85
